Entry source: ChEMBL document CHEMBL1137341

# experimental system: Histone acetyltransferase GCN5 (Saccharomyces cerevisiae S288c)
# protocol description: Inhibition of Saccharomyces cerevisiae GCN5 at 0.6 mM
Active and inactive are the calls of the source. No cut-off for these calls is given here.
Can you answer with just one of these options? active, inactive

Example entries and their recorded answers appear below.
Qu. Write down the call the test reported for this molecule. Item: "Cc1ccc2ccccc2n1"
Ans. inactive

Qu. Write down the call the test reported for this molecule. Item: "CCOC(=O)c1ccc2ccccc2c1"
Ans. inactive

Qu. Write down the call the test reported for this molecule. Item: "NC(=O)c1cnc2ccccc2c1"
Ans. inactive

Qu. Write down the call the test reported for this molecule. Item: "CCOC(=O)c1c(C)nc2ccccc2c1O"
Ans. inactive

Qu. Write down the call the test reported for this molecule. Item: "CCOC(=O)c1cccnc1C"
Ans. inactive

Others:
Qu. Write down the call the test reported for this molecule. Item: "O=C(O)c1cnc2ccccc2c1"
Ans. inactive

Qu. Write down the call the test reported for this molecule. Item: "CCOC(=O)c1cnc2ccccc2c1"
Ans. active
